molecular target: UniProtKB Q9NXR8
Sequence (Q9NXR8 360-409): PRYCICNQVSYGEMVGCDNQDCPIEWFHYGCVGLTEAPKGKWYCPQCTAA
measurement-kind: pKd
pKd (log units): -log10 of the concentration in mol/L.

Below are worked cases with known answers.
[
  {
    "structure-notation": "C[C@H](N)C(=O)N[C@@H](CCCNC(=N)N)C(=O)N[C@H](C(=O)N[C@@H](CCCCN)C(=O)N[C@@H](CCC(N)=O)C(=O)N[C@H](C(=O)N[C@@H](C)C(=O)N[C@@H](CCCNC(=N)N)C(=O)N[C@@H](CCCCN)C(=O)N[C@@H](CO)C(=O)N[C@H](C(=O)NCC(N)=O)[C@@H](C)O)[C@@H](C)O)[C@@H](C)O",
    "study-system": "UniProtKB Q9NXR8",
    "quantitative-readout": 3.88
  },
  {
    "structure-notation": "C[C@H](N)C(=O)N[C@@H](CCCNC(=N)N)C(=O)N[C@H](C(=O)N[C@@H](CCCC[N+](C)(C)C)C(=O)N[C@@H](CCC(N)=O)C(=O)N[C@H](C(=O)N[C@@H](C)C(=O)N[C@@H](CCCNC(=N)N)C(=O)N[C@@H](CCCCN)C(=O)N[C@@H](CO)C(=O)N[C@H](C(=O)NCC(N)=O)[C@@H](C)O)[C@@H](C)O)[C@@H](C)O",
    "study-system": "UniProtKB Q9NXR8",
    "quantitative-readout": 6.20
  },
  {
    "structure-notation": "CNCCCC[C@H](NC(=O)[C@@H](NC(=O)[C@H](CCCNC(=N)N)NC(=O)[C@H](C)N)[C@@H](C)O)C(=O)N[C@@H](CCC(N)=O)C(=O)N[C@H](C(=O)N[C@@H](C)C(=O)N[C@@H](CCCNC(=N)N)C(=O)N[C@@H](CCCCN)C(=O)N[C@@H](CO)C(=O)N[C@H](C(=O)NCC(N)=O)[C@@H](C)O)[C@@H](C)O",
    "study-system": "UniProtKB Q9NXR8",
    "quantitative-readout": 4.67
  }
]

Then there is this compound:
Qu. Requested read-out: pKd. Entry: C[C@H](N)C(=O)N[C@@H](CCCNC(=N)N)C(=O)N[C@H](C(=O)N[C@@H](CCCCN(C)C)C(=O)N[C@@H](CCC(N)=O)C(=O)N[C@H](C(=O)N[C@@H](C)C(=O)N[C@@H](CCCNC(=N)N)C(=O)N[C@@H](CCCCN)C(=O)N[C@@H](CO)C(=O)N[C@H](C(=O)NCC(N)=O)[C@@H](C)O)[C@@H](C)O)[C@@H](C)O
Ans. 5.39
